subject of test: recombinant human CD1d ectodomain/β2m complex (hCD1d) (Homo sapiens, UniProt P15813)
Construct: TEV protease cleavage site ENLYFQS (C); BirA biotinylation site (C); His7 (C); made in house; host or cells: TurboCHO cells (GenScript)
Sequence (P15813 whole entry, looked up, the tested form may be a part, one chain of several): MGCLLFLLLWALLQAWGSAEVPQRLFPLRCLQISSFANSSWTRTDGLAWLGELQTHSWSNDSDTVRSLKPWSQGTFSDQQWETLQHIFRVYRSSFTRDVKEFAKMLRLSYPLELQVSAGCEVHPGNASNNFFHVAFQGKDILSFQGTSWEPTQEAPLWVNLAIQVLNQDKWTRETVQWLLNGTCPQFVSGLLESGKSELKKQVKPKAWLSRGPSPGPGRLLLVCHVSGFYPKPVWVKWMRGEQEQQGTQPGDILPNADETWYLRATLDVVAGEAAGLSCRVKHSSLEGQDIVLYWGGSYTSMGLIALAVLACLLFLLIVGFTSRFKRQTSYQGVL
assay details: Intrinsic tryptophan fluorescence (ITF) binding assay
applied conditions: 18:1 LPC titration with 0.05% CHAPS; read-out: K D (ITF) of lipid
measured quantity: Kd (µM)

structure: CCCCCCCC/C=C\CCCCCCCC(=O)OC[C@@H](O)COP(=O)([O-])OCC[N+](C)(C)C
result unit: µM
obs value: 59.9

Data origin, for the record: paper PMC12720774
